Provenance of the data: patent US11130769B2

- TARGET_DESC: MCL-1 (Homo sapiens (Human))
- PROCEDURE_SUMMARY: Cell free Mcl-1:Bim affinity assay (fluorescence polarization competition)
- Type: binding
- TEST_CONTEXT: 15 nM MCL-1, 5 nM FITC-Bim, 1 hour at room temperature; class symbols; read-out: BIM_Ki
pKi: −log10 of the molar value.
VALUE_TYPE: pKi

Reference set, count: 3
> print(dat)
                         structure.notation                   target.desc     obs.value
1  CN(C(=O)O[C@H]1/C=C/CN(C)C2(CCC2)C(=O)NS(=O)(=O)c2ccc3c(c2)N(C[C@@H]2CC[C@H]21)C[C@@]1(CCCc2cc(Cl)ccc21)CO3)C1CCOCC1  MCL-1 (Homo sapiens (Human))        > 9.00
2  O=C1NS(=O)(=O)c2ccc3c(c2)N(C[C@@H]2CC[C@H]2[C@@H](O)/C=C/COC12CC2)C[C@@]1(CCCc2cc(Cl)ccc21)CO3  MCL-1 (Homo sapiens (Human))        > 9.00
3  CO[C@@H]1/C=C/CN(S(C)(=O)=O)[C@H](C)C(=O)NS(=O)(=O)c2ccc3c(c2)N(C[C@@H]2CC[C@H]21)C[C@@]1(CCCc2cc(Cl)ccc21)CO3  MCL-1 (Homo sapiens (Human))  7.00 to 9.00

Hi! Can you tell me pKi for each of these molecules?
1. CON(C)C(=O)O[C@H]1/C=C/COC(C)(C)C(=O)NS(=O)(=O)c2ccc3c(c2)N(C[C@@H]2CC[C@H]21)C[C@@]1(CCCc2cc(Cl)ccc21)CO3
2. COCCN1CCCN(CCO[C@H]2/C=C/CN(C)C(C)(C)C(=O)NS(=O)(=O)c3ccc4c(c3)N(C[C@@H]3CC[C@H]32)C[C@@]2(CCCc3cc(Cl)ccc32)CO4)CC1
3. CN(C(=O)O[C@H]1/C=C/CN(C)C(C)(C)C(=O)NS(=O)(=O)c2ccc3c(c2)N(C[C@@H]2CC[C@H]21)C[C@@]1(CCCc2cc(Cl)ccc21)CO3)[C@@H]1CCOC1

1: > 9.00; 2: 7.00 to 9.00; 3: > 9.00

----------
For each of the compounds below, state its pKi.
- TARGET_DESC: MCL-1 (Homo sapiens (Human), UniProt Q07820)
- Sequence (Q07820 whole entry): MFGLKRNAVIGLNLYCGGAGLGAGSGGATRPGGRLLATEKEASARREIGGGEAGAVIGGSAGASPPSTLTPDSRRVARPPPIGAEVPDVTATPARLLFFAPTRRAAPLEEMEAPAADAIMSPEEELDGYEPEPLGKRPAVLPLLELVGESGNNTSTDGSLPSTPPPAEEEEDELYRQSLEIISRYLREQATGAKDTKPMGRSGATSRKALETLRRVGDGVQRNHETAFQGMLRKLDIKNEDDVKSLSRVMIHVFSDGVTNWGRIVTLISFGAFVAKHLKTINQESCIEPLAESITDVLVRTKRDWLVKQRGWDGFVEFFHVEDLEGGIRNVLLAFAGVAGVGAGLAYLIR
- PROCEDURE_SUMMARY: Cell free Mcl-1:Bim affinity assay (fluorescence polarization competition)
- Type: binding
- TEST_CONTEXT: 15 nM MCL-1, 5 nM FITC-Bim, 1 hour at room temperature; class symbols; read-out: BIM_Ki
pKi: −log10 of the molar value.

Reference set, count: 6
> print(dat)
                         structure.notation  obs.value
1  CN(C)C(=O)O[C@@H]1/C=C/CNC(C)(C)C(=O)NS(=O)(=O)c2ccc3c(c2)N(C[C@@H]2CC[C@H]21)C[C@@]1(CCCc2cc(Cl)ccc21)CO3     > 9.00
2  CC1(C)OC/C=C/[C@H](O)[C@@H]2CC[C@H]2CN2C[C@@]3(CCCc4cc(Cl)ccc43)COc3ccc(cc32)S(=O)(=O)NC1=O     > 9.00
3  CC1(C)OC/C=C/[C@H](OCC(=O)N2CCC2)[C@@H]2CC[C@H]2CN2C[C@@]3(CCCc4cc(Cl)ccc43)COc3ccc(cc32)S(=O)(=O)NC1=O     > 9.00
4  COC[C@@H]1OC/C=C/[C@@H](OC)[C@@H]2CC[C@H]2CN2C[C@@]3(CCCc4cc(Cl)ccc43)COc3ccc(cc32)S(=O)(=O)NC1=O     > 9.00
5  CC1(C)OC/C=C/[C@H](OC(=O)N2CC3CCC(C2)O3)[C@@H]2CC[C@H]2CN2C[C@@]3(CCCc4cc(Cl)ccc43)COc3ccc(cc32)S(=O)(=O)NC1=O     > 9.00
6  CC1(C)OC/C=C/[C@H](OCC(=O)N2CCCC2)[C@@H]2CC[C@H]2CN2C[C@@]3(CCCc4cc(Cl)ccc43)COc3ccc(cc32)S(=O)(=O)NC1=O     > 9.00

Hi! Can you tell me pKi for each of these compounds?
1. CCOC(=O)N(C)[C@@H]1/C=C/CN(C)C(C)(C)C(=O)NS(=O)(=O)c2ccc3c(c2)N(C[C@@H]2CC[C@H]21)C[C@@]1(CCCc2cc(Cl)ccc21)CO3
2. CC(C)NC(=O)O[C@H]1/C=C/COC(C)(C)C(=O)NS(=O)(=O)c2ccc3c(c2)N(C[C@@H]2CC[C@H]21)C[C@@]1(CCCc2cc(Cl)ccc21)CO3
3. CN(C)C(=O)CO[C@@H]1/C=C/COC2(CC2)C(=O)NS(=O)(=O)c2ccc3c(c2)N(C[C@@H]2CC[C@H]21)C[C@@]1(CCCc2cc(Cl)ccc21)CO3
4. CO[C@@H]1/C=C/CN[C@@H](C2CC2)C(=O)NS(=O)(=O)c2ccc3c(c2)N(C[C@@H]2CC[C@H]21)C[C@@]1(CCCc2cc(Cl)ccc21)CO3

1. 7.00 to 9.00
2. > 9.00
3. > 9.00
4. 7.00 to 9.00

Kindly indicate its recorded pKi. Item: "CCOC1CN(C(=O)O[C@H]2/C=C/CN(C)C3(CCC3)C(=O)NS(=O)(=O)c3ccc4c(c3)N(C[C@@H]3CC[C@H]32)C[C@@]2(CCCc3cc(Cl)ccc32)CO4)C1"
> 9.00

----------
- TARGET_DESC: MCL-1 (Homo sapiens (Human))
- PROCEDURE_SUMMARY: Cell free Mcl-1:Bim affinity assay (fluorescence polarization competition)
- Assay type: binding
- TEST_CONTEXT: 15 nM MCL-1, 5 nM FITC-Bim, 1 hour at room temperature; class symbols; read-out: BIM_Ki
VALUE_TYPE: Ki

MOLECULE	Ki
CC1(C)OC/C=C/[C@H](OCCN2CC(F)(F)C2)[C@@H]2CC[C@H]2CN2C[C@@]3(CCCc4cc(Cl)ccc43)COc3ccc(cc32)S(=O)(=O)NC1=O [Example 258]	< 1 nM
CC1(C)OC/C=C/[C@H](OC(=O)NC2CCOCC2)[C@@H]2CC[C@H]2CN2C[C@@]3(CCOc4cc(Cl)ccc43)COc3ccc(cc32)S(=O)(=O)NC1=O [Example 305]	< 1 nM
CC1(C)OC/C=C/[C@H](OCC(=O)NC2CCOCC2)[C@@H]2CC[C@H]2CN2C[C@@]3(CCCc4cc(Cl)ccc43)COc3ccc(cc32)S(=O)(=O)NC1=O [Example 282]	< 1 nM
CO[C@@H]1/C=C/CN[C@@H](C(C)C)C(=O)NS(=O)(=O)c2ccc3c(c2)N(C[C@@H]2CC[C@H]21)C[C@@]1(CCCc2cc(Cl)ccc21)CO3 [Example 128]	1 to 100 nM

Read the next record carefully.
Kindly indicate its recorded Ki. Item: CC1(C)OC/C=C/[C@H](OC(=O)N2CC(F)(F)C2)[C@@H]2CC[C@H]2CN2C[C@@]3(CCCc4cc(Cl)ccc43)COc3ccc(cc32)S(=O)(=O)NC1=O [Example 49]
< 1 nM

----------
For each of the molecules below, state its IC50.
- System: H929 cells
- PROCEDURE_SUMMARY: Cell viability assay (H929 10 FBS)
- Assay type: cell-based
- TEST_CONTEXT: Homo sapiens, NCI-H929, 24 hours, read-out: H929_10FBS IC50

Reference set, count: 4
> print(dat)
                         structure.notation  value.type  obs.value
1  CC1(C)OC/C=C/[C@H](OC(=O)N2CCC(F)(F)C2)[C@@H]2CC[C@H]2CN2C[C@@]3(CCCc4cc(Cl)ccc43)COc3ccc(cc32)S(=O)(=O)NC1=O        IC50   < 500 nM
2  O=C1Cc2cncc(c2)OC[C@@H]2CC[C@H]2CN2C[C@@]3(CCCc4cc(Cl)ccc43)COc3ccc(cc32)S(=O)(=O)N1        IC50  > 1000 nM
3  CN[C@H]1CCN(C(=O)O[C@H]2/C=C/COC(C)(C)C(=O)NS(=O)(=O)c3ccc4c(c3)N(C[C@@H]3CC[C@H]32)C[C@@]2(CCCc3cc(Cl)ccc32)CO4)C1        IC50   < 500 nM
4  O=C(N[C@H]1CCOC1)O[C@H]1/C=C/COC2(CCC2)C(=O)NS(=O)(=O)c2ccc3c(c2)N(C[C@@H]2CC[C@H]21)C[C@@]1(CCCc2cc(Cl)ccc21)CO3        IC50   < 500 nM

Read the next record carefully.
Kindly indicate its recorded IC50. Item: "CO[C@@H]1/C=C/COC2(CC2)C(=O)NS(=O)(=O)c2ccc3c(c2)N(C[C@@H]2CC[C@H]21)C[C@@]1(CCCc2cc(Cl)ccc21)CO3"
< 1000 nM

----------
- Tested on: H929 cells
- PROCEDURE_SUMMARY: Cell viability assay (H929 10 FBS)
- Type: cell-based
- TEST_CONTEXT: Homo sapiens, NCI-H929, 24 hours, read-out: H929_10FBS IC50
pIC50: −log10 of the molar value.
VALUE_TYPE: pIC50

Hi! Can you tell me pIC50 for each of these compounds?
1. CN(C(=O)O[C@H]1/C=C/CN(C)C2(CCC2)C(=O)NS(=O)(=O)c2ccc3c(c2)N(C[C@@H]2CC[C@H]21)C[C@@]1(CCCc2cc(Cl)ccc21)CO3)[C@@H]1CCOC1 [Example 242]
2. CC(C)CNC(=O)O[C@H]1/C=C/COC(C)(C)C(=O)NS(=O)(=O)c2ccc3c(c2)N(C[C@@H]2CC[C@H]21)C[C@@]1(CCCc2cc(Cl)ccc21)CO3 [Example 182]
3. CN1C/C=C/[C@H](OCCN2CC(F)C2)[C@@H]2CC[C@H]2CN2C[C@@]3(CCCc4cc(Cl)ccc43)COc3ccc(cc32)S(=O)(=O)NC(=O)C1(C)C [Example 275]

1. > 6.30
2. > 6.30
3. > 6.30

Hi! Can you tell me pIC50 for each of these compounds?
1. CCO[C@@H]1CCN(C(=O)O[C@H]2/C=C/COC3(CCC3)C(=O)NS(=O)(=O)c3ccc4c(c3)N(C[C@@H]3CC[C@H]32)C[C@@]2(CCCc3cc(Cl)ccc32)CO4)C1 [Example 228]
2. CN1C/C=C/[C@H](OC(=O)N[C@H]2CCOC2)[C@@H]2CC[C@H]2CN2C[C@@]3(CCCc4cc(Cl)ccc43)COc3ccc(cc32)S(=O)(=O)NC(=O)C1(C)C [Example 212]
3. CN1C/C=C/[C@H](OCCN2CCC(F)(F)C2)[C@@H]2CC[C@H]2CN2C[C@@]3(CCCc4cc(Cl)ccc43)COc3ccc(cc32)S(=O)(=O)NC(=O)C1(C)C [Example 288]
4. CC1(C)OC/C=C/[C@H](O)[C@@H]2CC[C@H]2CN2C[C@@]3(CCCc4cc(Cl)ccc43)COc3ccc(cc32)S(=O)(=O)NC1=O [Example 32]
5. CN(C)C(=O)N(C)[C@H]1/C=C/COC(C)(C)C(=O)NS(=O)(=O)c2ccc3c(c2)N(C[C@@H]2CC[C@H]21)C[C@@]1(CCCc2cc(Cl)ccc21)CO3 [Example 257]
6. COC1CN(C(=O)O[C@H]2/C=C/COC(C)(C)C(=O)NS(=O)(=O)c3ccc4c(c3)N(C[C@@H]3CC[C@H]32)C[C@@]2(CCOc3cc(Cl)ccc32)CO4)C1 [Example 309]

["> 6.30", "> 6.30", "< 6.00", "> 6.30", "< 6.00", "> 6.00"]

Hi! Can you tell me pIC50 for each of these compounds?
1. COC(=O)N1C/C=C/[C@@H](OC)[C@@H]2CC[C@H]2CN2C[C@@]3(CCCc4cc(Cl)ccc43)COc3ccc(cc32)S(=O)(=O)NC(=O)C2(CCC2)C1 [Example 67]
2. O=C1NS(=O)(=O)c2ccc3c(c2)N(C[C@@H]2CC[C@H]2[C@@H](O)/C=C/COC12CC2)C[C@@]1(CCCc2cc(Cl)ccc21)CO3 [Example 40]

["< 6.00", "> 6.30"]
